The entries below are paired with their reported activity coefficient.
assay: activity coefficient (dimensionless); of the first substance listed, at infinite dilution; xn = mol fraction of the nth substance listed; conditions: 308.15 K; 101 kPa; Liquid; Chromatography; x1 = 0
Measured attribute: activity coefficient

>>> df
                                   molecule  measured_number
0  CCCCCC [hexane] + CCCCC[N+]1(C)CCCCC1.O=S(=O)([N-]S(=O)(=O)C(F)(F)F)C(F)(F)F              9.9
1  CCCCCCCC [octane] + CCCCCC[N+]1(C)CCCCC1.O=S(=O)([N-]S(=O)(=O)C(F)(F)F)C(F)(F)F             12.9
2  Cc1ccccc1C [1,2-dimethylbenzene] + CCCCCC[N+]1(C)CCCCC1.O=S(=O)([N-]S(=O)(=O)C(F)(F)F)C(F)(F)F             1.04
3  CCCO [propan-1-ol] + CCCCC[N+]1(C)CCCCC1.O=S(=O)([N-]S(=O)(=O)C(F)(F)F)C(F)(F)F             2.05
4  CCCCC [pentane] + CCCCCC[N+]1(C)CCCCC1.O=S(=O)([N-]S(=O)(=O)C(F)(F)F)C(F)(F)F             5.95
5  C=CCCCCCC [oct-1-ene] + CCCCC[N+]1(C)CCCCC1.O=S(=O)([N-]S(=O)(=O)C(F)(F)F)C(F)(F)F              9.9
6  Cc1ccc(C)cc1 [1,4-dimethylbenzene] + CCCCCC[N+]1(C)CCCCC1.O=S(=O)([N-]S(=O)(=O)C(F)(F)F)C(F)(F)F             1.14

Numbers sourced from the NIST ThermoML archive (doi:10.1016/j.jct.2013.01.005).
